Reference for the values: paper PMC5085761

tested-system: OAT1 (Homo sapiens, UniProt Q4U2R8)
Sequence (Q4U2R8 whole entry, species assumed): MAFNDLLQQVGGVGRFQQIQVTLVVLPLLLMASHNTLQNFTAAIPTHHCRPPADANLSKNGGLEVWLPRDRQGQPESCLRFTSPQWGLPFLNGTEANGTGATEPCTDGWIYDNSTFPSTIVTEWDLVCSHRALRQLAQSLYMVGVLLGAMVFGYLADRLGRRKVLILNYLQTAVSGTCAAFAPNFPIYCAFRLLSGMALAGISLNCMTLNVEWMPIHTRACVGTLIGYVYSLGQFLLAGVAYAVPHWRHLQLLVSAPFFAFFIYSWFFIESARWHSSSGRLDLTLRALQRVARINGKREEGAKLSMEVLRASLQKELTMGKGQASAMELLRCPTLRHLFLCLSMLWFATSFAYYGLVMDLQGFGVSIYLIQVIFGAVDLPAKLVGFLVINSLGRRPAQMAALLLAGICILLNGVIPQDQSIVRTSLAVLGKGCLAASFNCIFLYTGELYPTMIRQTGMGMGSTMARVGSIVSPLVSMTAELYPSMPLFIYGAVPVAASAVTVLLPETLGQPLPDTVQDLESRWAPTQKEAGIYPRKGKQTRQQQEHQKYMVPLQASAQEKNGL
assay-summary: Inhibition of tracer uptake in OAT1-expressing cells
applied-conditions: OAT1, tracer [14C]PAH 1 µM
pIC50: −log10 of the molar value.
endpoint: pIC50

{"chemical-string": "N[C@]1(C(=O)O)C[C@@H](F)C1", "tested-system": "OAT1 (Homo sapiens, UniProt Q4U2R8)", "endpoint": "pIC50", "recorded-result": 2.40}

* * *

tested-system: human P-gp (Homo sapiens, UniProt P08183)
Sequence (P08183 whole entry): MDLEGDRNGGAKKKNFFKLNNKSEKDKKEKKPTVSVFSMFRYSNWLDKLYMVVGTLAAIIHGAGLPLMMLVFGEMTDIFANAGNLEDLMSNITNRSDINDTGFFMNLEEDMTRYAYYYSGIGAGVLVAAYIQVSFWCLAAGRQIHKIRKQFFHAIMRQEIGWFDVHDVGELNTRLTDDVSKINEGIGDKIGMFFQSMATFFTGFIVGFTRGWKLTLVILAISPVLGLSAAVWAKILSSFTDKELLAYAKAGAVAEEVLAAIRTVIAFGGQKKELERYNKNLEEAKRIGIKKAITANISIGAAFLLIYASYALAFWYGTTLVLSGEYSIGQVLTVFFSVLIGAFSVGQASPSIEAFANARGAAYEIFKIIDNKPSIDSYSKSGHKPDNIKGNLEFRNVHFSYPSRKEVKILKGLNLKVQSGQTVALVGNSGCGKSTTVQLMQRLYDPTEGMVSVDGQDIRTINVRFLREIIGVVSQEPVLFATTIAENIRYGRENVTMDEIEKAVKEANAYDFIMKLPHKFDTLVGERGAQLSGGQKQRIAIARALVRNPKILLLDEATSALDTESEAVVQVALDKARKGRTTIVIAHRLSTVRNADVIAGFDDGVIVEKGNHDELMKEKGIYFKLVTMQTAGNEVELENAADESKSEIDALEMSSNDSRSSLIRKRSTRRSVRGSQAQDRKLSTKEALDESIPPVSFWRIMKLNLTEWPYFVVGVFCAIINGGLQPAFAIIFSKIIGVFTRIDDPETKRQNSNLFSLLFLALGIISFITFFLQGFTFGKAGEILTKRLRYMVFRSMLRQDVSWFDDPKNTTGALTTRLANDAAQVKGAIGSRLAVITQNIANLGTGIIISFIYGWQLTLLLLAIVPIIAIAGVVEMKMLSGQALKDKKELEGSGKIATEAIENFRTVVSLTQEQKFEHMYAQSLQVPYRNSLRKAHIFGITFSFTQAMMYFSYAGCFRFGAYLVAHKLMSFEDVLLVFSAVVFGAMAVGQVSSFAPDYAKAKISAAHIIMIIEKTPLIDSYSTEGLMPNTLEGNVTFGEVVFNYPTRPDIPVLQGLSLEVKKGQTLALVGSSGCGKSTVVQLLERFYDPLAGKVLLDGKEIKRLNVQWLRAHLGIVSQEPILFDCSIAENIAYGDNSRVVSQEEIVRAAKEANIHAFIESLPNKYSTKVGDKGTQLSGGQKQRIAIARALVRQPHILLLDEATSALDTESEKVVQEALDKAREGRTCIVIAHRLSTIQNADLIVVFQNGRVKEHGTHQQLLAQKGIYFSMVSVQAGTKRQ
assay-summary: Inhibition of tracer uptake in P-gp-expressing vesicles
applied-conditions: tracer [3H]digoxin 1 µM
Experimental: For ABC transporters, experimental kits containing Sf9-derived vesicles with high expression levels of human P-gp, MRP4, BCRP, and each ABC transporter (including buffer, ATP/AMP solution, and glutathione) were purchased from GenoMembrane Co., Ltd. (Kanagawa, Japan). Vesicular transport assays were carried out according to the manufacturer’s protocol. […] The radioactivity of the filter was measured with a Tri-Carb 2910TR liquid scintillation counter (PerkinElmer) using Ultima Gold (PerkinElmer). […]
endpoint: IC50 (µM)

{"chemical-string": "N[C@]1(C(=O)O)C[C@@H](F)C1", "tested-system": "human P-gp (Homo sapiens, UniProt P08183)", "endpoint": "IC50", "unit-label": "µM", "recorded-result": 2950}
